# PROTOCOL TEXT: pharmacokinetics in human clinical trials, plasma KRN7000 by LC-MS/MS
# Format: in vivo
# CONDITION SET: 100 μg/kg as KRN7000, plasma KRN7000 after RGI-2001-003 iv 100 μg/kg weekly, patients, Day 14, read-out: Cmin
ATTRIBUTE MEASURED: concentration at 14 day (ng/mL)
Please state the figure in ng/mL; there is no need to write the unit.

Challenge: Sample CCCCCCCCCCCCCCCCCCCCCCCCCC(=O)N[C@@H](CO[C@H]1OC(CO)[C@H](O)C(O)C1O)[C@H](O)[C@H](O)CCCCCCCCCCCCCC (stereo partly shown) [KRN7000] — what was its concentration at 14 day?
Response given: 34.1
